- TEST_NAME: Clearance in dog at 3 mg/kg
- Type: ADME, organism-based, Canis lupus familiaris
- Parameters: dose 3 mg/kg
- MEASUREMENT_PARAMETERS: in vivo
MEASURED_ENDPOINT: clearance

Reported clearance ( Cc1cc(N2CCC[C@@H]2C(=O)NCCc2ccc3c(c2)OCO3)nc(-n2ccnc2)n1 ) = 4.5 mL/min/kg

----------
Kindly state IC50 for each of the entries shown.
- TARGET_OR_SYSTEM: Nitric oxide synthase, inducible (Homo sapiens, UniProt P35228)
- Sequence (P35228 whole entry): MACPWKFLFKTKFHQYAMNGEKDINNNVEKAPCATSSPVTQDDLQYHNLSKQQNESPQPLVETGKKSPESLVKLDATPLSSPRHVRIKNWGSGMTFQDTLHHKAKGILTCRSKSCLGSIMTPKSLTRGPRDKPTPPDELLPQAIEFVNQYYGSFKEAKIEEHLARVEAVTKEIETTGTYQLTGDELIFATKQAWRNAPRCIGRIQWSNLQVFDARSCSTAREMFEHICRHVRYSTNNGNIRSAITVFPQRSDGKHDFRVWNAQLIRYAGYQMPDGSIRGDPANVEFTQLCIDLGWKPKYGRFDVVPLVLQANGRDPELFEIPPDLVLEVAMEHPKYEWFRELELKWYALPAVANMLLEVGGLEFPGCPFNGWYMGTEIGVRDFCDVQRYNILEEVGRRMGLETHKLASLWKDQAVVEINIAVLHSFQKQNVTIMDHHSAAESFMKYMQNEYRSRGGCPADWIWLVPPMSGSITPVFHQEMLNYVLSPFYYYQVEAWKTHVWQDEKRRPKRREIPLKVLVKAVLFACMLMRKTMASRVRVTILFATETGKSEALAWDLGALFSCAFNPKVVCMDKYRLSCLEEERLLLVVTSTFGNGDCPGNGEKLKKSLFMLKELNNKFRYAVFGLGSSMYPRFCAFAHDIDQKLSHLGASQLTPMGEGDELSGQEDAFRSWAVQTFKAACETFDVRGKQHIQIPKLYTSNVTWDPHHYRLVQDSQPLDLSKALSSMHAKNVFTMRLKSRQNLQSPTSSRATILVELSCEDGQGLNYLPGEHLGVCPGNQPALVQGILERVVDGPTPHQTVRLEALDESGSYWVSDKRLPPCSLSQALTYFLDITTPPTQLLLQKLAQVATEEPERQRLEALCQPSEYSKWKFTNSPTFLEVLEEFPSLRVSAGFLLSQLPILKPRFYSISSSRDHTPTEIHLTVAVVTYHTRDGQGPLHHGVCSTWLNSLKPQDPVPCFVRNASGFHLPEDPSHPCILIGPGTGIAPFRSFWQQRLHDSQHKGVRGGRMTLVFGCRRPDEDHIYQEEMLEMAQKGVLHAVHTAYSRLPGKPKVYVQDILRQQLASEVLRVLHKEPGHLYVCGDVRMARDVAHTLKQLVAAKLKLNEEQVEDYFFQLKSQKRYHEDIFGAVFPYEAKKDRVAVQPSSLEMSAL
- TEST_NAME: Inhibition of cytokine-induced iNOS expressed in human A172 cells assessed as inhibition of NO formation
Write the numeric value and follow it with the unit.

Entry O=C(CC1CCCCN1c1ccnc(-n2ccnc2)n1)NCc1ccc2c(c1)OCO2 (centres undefined) under Nitric oxide synthase, inducible (Homo sapiens, UniProt P35228) had IC50 of 0.5 nM

Entry O=C(CC1CNCCN1c1ccnc(-n2ccnc2)n1)NCc1ccc2c(c1)OCO2 (centres undefined) under Nitric oxide synthase, inducible (Homo sapiens, UniProt P35228) had IC50 of 0.55 nM

Entry CN1CCN(c2ccnc(-n3ccnc3)n2)C(CC(=O)NCc2ccc3c(c2)OCO3)C1 (centres undefined) under Nitric oxide synthase, inducible (Homo sapiens, UniProt P35228) had IC50 of 0.48 nM

Entry O=C(CC1CCCCN1c1cc(C(F)(F)F)nc(-n2ccnc2)n1)NCc1ccc2c(c1)OCO2 (centres undefined) under Nitric oxide synthase, inducible (Homo sapiens, UniProt P35228) had IC50 of 180 nM

Entry CC(C)OC(=O)N1CCN(c2ccnc(-n3ccnc3)n2)C(CC(=O)NCc2ccc3c(c2)OCO3)C1 (centres undefined) under Nitric oxide synthase, inducible (Homo sapiens, UniProt P35228) had IC50 of 1 nM

Entry CC(=O)N1CCN(c2cc(C)nc(-n3ccnc3)n2)CC1CC(=O)NCc1ccc2c(c1)OCO2 (centres undefined) under Nitric oxide synthase, inducible (Homo sapiens, UniProt P35228) had IC50 of 8.5 nM

Entry O=C(CC1CN(C(=O)NCc2ccccc2)CCN1c1ccnc(-n2ccnc2)n1)NCc1ccc2c(c1)OCO2 (centres undefined) under Nitric oxide synthase, inducible (Homo sapiens, UniProt P35228) had IC50 of 0.96 nM

Entry Cc1cc(N2CCN(C(=O)C(C)C)[C@@H](CC(=O)NCc3ccc4c(c3)OCO4)C2)nc(-n2ccnc2)n1 under Nitric oxide synthase, inducible (Homo sapiens, UniProt P35228) had IC50 of 300 nM

Entry CN(C)c1ccc(CNC(=O)CC2CCCCN2c2ccnc(-n3ccnc3)n2)cc1 (centres undefined) under Nitric oxide synthase, inducible (Homo sapiens, UniProt P35228) had IC50 of 66 nM

Entry O=C(NCCc1ccc2c(c1)OCO2)[C@H]1CCCN1c1ccnc(-n2ccnc2)n1 under Nitric oxide synthase, inducible (Homo sapiens, UniProt P35228) had IC50 of 0.48 nM

Entry O=C(CC1CCCCN1c1nccc(-n2ccnc2)n1)NCc1ccc2c(c1)OCO2 (centres undefined) under Nitric oxide synthase, inducible (Homo sapiens, UniProt P35228) had IC50 of 52 nM

Entry CNC(=O)N1CCN(c2ccnc(-n3ccnc3)n2)C(CC(=O)NCc2ccc3c(c2)OCO3)C1 (centres undefined) under Nitric oxide synthase, inducible (Homo sapiens, UniProt P35228) had IC50 of 1 nM

Entry CCOC(=O)CN1CCN(c2ccnc(-n3ccnc3)n2)C(CC(=O)NCc2ccc3c(c2)OCO3)C1 (centres undefined) under Nitric oxide synthase, inducible (Homo sapiens, UniProt P35228) had IC50 of 0.93 nM

Entry O=C(CC1CCCCCN1c1ccnc(-n2ccnc2)n1)NCc1ccc2c(c1)OCO2 (centres undefined) under Nitric oxide synthase, inducible (Homo sapiens, UniProt P35228) had IC50 of 2 nM

Entry Cc1cc(N2CCC[C@@H]2CC(=O)NCc2ccc3c(c2)OCO3)nc(-n2ccnc2)n1 under Nitric oxide synthase, inducible (Homo sapiens, UniProt P35228) had IC50 of 0.12 nM

Entry O=C(CC1CN(Cc2cccc3ccccc23)CCN1c1ccnc(-n2ccnc2)n1)NCc1ccc2c(c1)OCO2 (centres undefined) under Nitric oxide synthase, inducible (Homo sapiens, UniProt P35228) had IC50 of 69 nM

Entry O=C(CC1CCCCN1c1ccnc(-n2ccnc2)n1)NCc1ccco1 (centres undefined) under Nitric oxide synthase, inducible (Homo sapiens, UniProt P35228) had IC50 of 63 nM

Entry O=C(CC1CN(C(=O)c2ccco2)CCN1c1ccnc(-n2ccnc2)n1)NCc1ccc2c(c1)OCO2 (centres undefined) under Nitric oxide synthase, inducible (Homo sapiens, UniProt P35228) had IC50 of 0.67 nM

Entry O=C(CC1CCCCN1c1ccnc(-n2ccnc2)n1)NCc1ccc([N+](=O)[O-])cc1 (centres undefined) under Nitric oxide synthase, inducible (Homo sapiens, UniProt P35228) had IC50 of 168 nM

----------
- TEST_NAME: Bioavailability in dog at 3 mg/kg, po
- Type: ADME, organism-based, Canis lupus familiaris
- MEASUREMENT_PARAMETERS: in vivo
MEASURED_ENDPOINT: bioavailability (%)
Kindly answer with a numeric value in %, unit omitted.

Reported bioavailability ( Cc1cc(N2CCC[C@@H]2C(=O)NCCc2ccc3c(c2)OCO3)nc(-n2ccnc2)n1 ) = 71

----------
- TARGET_OR_SYSTEM: UniProtKB P35228
- TEST_NAME: Inhibition of cytokine-induced iNOS expressed in human A172 cells assessed as inhibition of NO formation
Kindly state log10 of IC50 for each of the entries shown.
Values reflect log10 of reported IC50 (nM).

Reported log10 of IC50 ( O=C(CC1CN(C(=O)Oc2ccccc2)CCN1c1ccnc(-n2ccnc2)n1)NCc1ccc2c(c1)OCO2 (configuration not stated) ) = 0.15

Reported log10 of IC50 ( CC(C)CCN1CCN(c2ccnc(-n3ccnc3)n2)C(CC(=O)NCc2ccc3c(c2)OCO3)C1 (configuration not stated) ) = 0.00

Reported log10 of IC50 ( O=C(CC1CCCCN1c1cc(Cl)nc(-n2ccnc2)n1)NCc1ccc2c(c1)OCO2 (configuration not stated) ) = -0.31

Reported log10 of IC50 ( Cc1cc(N2CCN(C(=O)C(C)C)[C@H](CC(=O)NCc3ccc4c(c3)OCO4)C2)nc(-n2ccnc2)n1 ) = -0.12

Reported log10 of IC50 ( Cc1cc(N2CCC[C@@H]2C(=O)NCCc2ccc3c(c2)OCO3)nc(-n2ccnc2)n1 ) = -0.54

Reported log10 of IC50 ( Cc1cc(N2CCNC(CC(=O)NCc3ccc4c(c3)OCO4)C2)nc(-n2ccnc2)n1 (configuration not stated) ) = 2.00

Reported log10 of IC50 ( CC(=O)N1CCN(c2ccnc(-n3ccnc3)n2)C(CC(=O)NCc2ccc3c(c2)OCO3)C1 (configuration not stated) ) = 0.00
